- Test Target: human B1R receptor (bradykinin 1 receptor) (Homo sapiens)
- Construct: host or cells: CHO K1 cells (hB1R cells)
- Protocol Description: FLIPR Ca2+ assay (Fluo-4) on CHO K1 cells stably transfected with the human B1R gene; % activation and % inhibition at 10 μM
- Assay type: cell-based
- Setup Conditions: CHO-K1, test substance 10 μM; CHO K1 hB1R cells; Ca2+ inflow after 0.5 nM Lys-Des-Arg9-bradykinin; read-out: B1R antagonism, human [10 μM] % inhibition
Where a name gives a salt, the structure may show the parent alone.
Measurement Kind: inhibition at 10 µM (%)

Recorded inhibition at 10 µM, per entry:
COc1cc(C)c(S(=O)(=O)N(C)CCOCC(=O)N2CCC(O)(c3cccc(C(F)(F)F)c3)CC2)c(C)c1 | 101
Cc1ccc(F)cc1S(=O)(=O)N(C)CCOCC(=O)N1CCC(O)(Cc2ccccc2)CC1 | 7.47

1. O=C(COCC1Cc2ccccc2CN1S(=O)(=O)c1ccc(Cl)cc1Cl)N1CCC(O)(c2cccnc2)CC1 (stereo not drawn) [Example 131, hydrochloride]
2. CN(CCOCC(=O)N1CCC(O)(Cc2ccccc2)CC1)S(=O)(=O)c1ccccc1
3. O=C(COC1CCCCC1N(Cc1ccccc1)S(=O)(=O)c1ccc(Cl)c(Cl)c1)N1CCC(O)(c2ccc(Cl)cc2)CC1 (stereo not drawn)
4. O=C(COCC1CCCN1S(=O)(=O)c1cc(Cl)sc1Cl)N1CCC(O)(c2ccc(Br)cc2)CC1 (stereo not drawn)
Sort low-to-high on inhibition at 10 µM, please. Sort the labels as requested; that list is your answer.
2, 3, 4, 1

1. COc1cc(C)c(S(=O)(=O)N(C)CCOCCC(=O)N2CCC(O)(c3ccc(Cl)c(C(F)(F)F)c3)CC2)c(C)c1
2. CN(CCOCC(=O)N1CCC(O)(c2ccccn2)CC1)S(=O)(=O)c1ccc(F)cc1
Endpoint returns whichever of 1 and 2 has the numerically higher inhibition at 10 µM. Respond with the label that goes with your answer.
1
(1: 96.4%, 2: -13.5%)

----------
- Test Target: human B1R receptor (bradykinin 1 receptor) (Homo sapiens)
- Construct: host or cells: CHO K1 cells (hB1R cells)
- Sequence (P46663 1-353): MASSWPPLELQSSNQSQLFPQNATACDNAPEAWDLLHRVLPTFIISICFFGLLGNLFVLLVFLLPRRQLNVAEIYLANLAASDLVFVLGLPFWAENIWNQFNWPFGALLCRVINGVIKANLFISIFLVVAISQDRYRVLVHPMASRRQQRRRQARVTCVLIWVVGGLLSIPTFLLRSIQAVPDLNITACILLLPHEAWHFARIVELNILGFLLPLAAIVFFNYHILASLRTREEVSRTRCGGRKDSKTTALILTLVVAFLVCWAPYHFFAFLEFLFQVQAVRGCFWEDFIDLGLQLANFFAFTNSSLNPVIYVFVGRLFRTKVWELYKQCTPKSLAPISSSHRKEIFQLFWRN
- Protocol Description: FLIPR Ca2+ assay (Fluo-4) on CHO K1 cells stably transfected with the human B1R gene; % activation and % inhibition at 10 μM
- Type: cell-based
- Setup Conditions: CHO-K1, test substance 10 μM; CHO K1 hB1R cells; Ca2+ inflow after 0.5 nM Lys-Des-Arg9-bradykinin; read-out: B1R antagonism, human [10 μM] % inhibition
Measurement Kind: inhibition at 10 µM (%)

Below, each entry is followed by its recorded inhibition at 10 µM result.
Cc1cc(S(=O)(=O)N(C)CCOCC(=O)N2CCC(O)(c3ccccc3)CC2)c(C)cc1Cl [Example 152] | 81.6
CN(CCOCC(=O)N1CCC(O)(c2ccccn2)CC1)S(=O)(=O)c1c(Cl)cccc1Cl [Example 10] | 90.3

P. O=C(COCC1CCCCN1S(=O)(=O)c1ccccc1C(F)(F)F)N1CCC(O)(Cc2ccccc2)CC1 (stereo not shown) [Example 176]
Q. COc1cc(C)c(S(=O)(=O)N2CCN(CCOCC(=O)N3CCC(O)(Cc4ccccc4)CC3)CC2)c(C)c1C [Example 18]
# compare inhibition at 10 µM for P vs Q ; return the one with the smaller value Please reply using the label of the selected record.
Q

----------
- Test Target: human B1R receptor (bradykinin 1 receptor) (Homo sapiens, UniProt P46663)
- Construct: host or cells: CHO K1 cells (hB1R cells)
- Protocol Description: FLIPR Ca2+ assay (Fluo-4) on CHO K1 cells stably transfected with the human B1R gene; % activation and % inhibition at 10 μM
- Type: cell-based
- Setup Conditions: CHO-K1, test substance 10 μM; CHO K1 hB1R cells; Ca2+ inflow after 0.5 nM Lys-Des-Arg9-bradykinin; read-out: B1R antagonism, human [10 μM] % inhibition
Measurement Kind: inhibition at 10 µM (%)

O=C(COC1CCCN(S(=O)(=O)c2c(Cl)cc(Cl)cc2Cl)C1)N1CCC(O)(Cc2ccccc2)CC1 (stereo not drawn) [Example 249] | 70.8

I. O=C(COCC1CCCN(S(=O)(=O)c2c(Cl)cc(Cl)cc2Cl)C1)N1CCC(O)(c2ccc(Cl)cc2)CC1 (stereo not drawn) [Example 254]
II. O=C(COCC1Cc2ccccc2N1S(=O)(=O)c1ccc(Cl)c(Cl)c1)N1CCC(O)(c2cccnc2)CC1 (stereo not drawn) [Example 100]
# returns the entry with the larger inhibition at 10 µM; inputs I and II Mark your answer with the label of the selected entry.
I
(I: 62.5%, II: -6.26%)

----------
- Test Target: B1R receptor of the rat (bradykinin 1 receptor) (Rattus norvegicus, UniProt P97583)
- Construct: host or cells: CHO K1 cells (rB1R cells)
- Sequence (P97583 whole entry): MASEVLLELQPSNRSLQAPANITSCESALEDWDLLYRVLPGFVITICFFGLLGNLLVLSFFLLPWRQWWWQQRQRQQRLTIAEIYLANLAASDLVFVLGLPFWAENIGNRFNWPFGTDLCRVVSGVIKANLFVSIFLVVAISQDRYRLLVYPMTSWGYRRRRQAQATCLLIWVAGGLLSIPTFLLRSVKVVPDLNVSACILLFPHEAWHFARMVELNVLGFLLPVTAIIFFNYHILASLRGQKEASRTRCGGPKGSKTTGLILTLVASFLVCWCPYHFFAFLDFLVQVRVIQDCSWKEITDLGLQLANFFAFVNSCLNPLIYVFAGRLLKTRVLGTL
- Protocol Description: FLIPR Ca2+ assay (Fluo-4) on CHO K1 cells stably transfected with the B1R gene of the rat; % activation and % inhibition at 10 μM
- Type: cell-based
- Setup Conditions: CHO-K1, test substance 10 μM; CHO K1 rB1R cells; Ca2+ inflow after 100 nM Des-Arg9-bradykinin; read-out: B1R antagonism, rat [10 μM] % inhibition
Measurement Kind: inhibition at 10 µM (%)

COc1cc(C)c(S(=O)(=O)N2Cc3ccccc3CC2COCC(=O)N2CCC(O)(c3cccc(C(F)(F)F)c3)CC2)c(C)c1C (centres unmarked) [Example 233] | 70.2

I. O=C(COCC1CCCCN1S(=O)(=O)c1c(Cl)cccc1Cl)N1CCC(O)(c2ccc(Br)cc2)CC1 (centres unmarked) [Example 234]
II. O=C(COCC1CCCN(S(=O)(=O)c2c(Cl)cc(Cl)cc2Cl)C1)N1CCC(O)(c2ccc(Cl)cc2)CC1 (centres unmarked) [Example 254]
Returns: the argument ( I or II ) having the larger inhibition at 10 µM. Give the label under which the chosen entry appears.
I
(I: 99.3%, II: 36.8%)

----------
- Test Target: B1R receptor of the rat (bradykinin 1 receptor) (Rattus norvegicus, UniProt P97583)
- Construct: host or cells: CHO K1 cells (rB1R cells)
- Protocol Description: FLIPR Ca2+ assay (Fluo-4) on CHO K1 cells stably transfected with the B1R gene of the rat; % activation and % inhibition at 10 μM
- Assay type: cell-based
- Setup Conditions: CHO-K1, test substance 10 μM; CHO K1 rB1R cells; Ca2+ inflow after 100 nM Des-Arg9-bradykinin; read-out: B1R antagonism, rat [10 μM] % inhibition
Measurement Kind: inhibition at 10 µM (%)

1. CN(CCOCC(=O)N1CCC(O)(c2ccccn2)CC1)S(=O)(=O)c1cc(F)cc(F)c1
2. Cc1cc(C)c(S(=O)(=O)N2CCCCC2COCC(=O)N2CCC(O)(c3ccc(Cl)cc3)CC2)c(C)c1 (stereo not drawn)
3. O=C(COCC1CCCCN1S(=O)(=O)c1ccc(C(F)(F)F)cc1)N1CCC(O)(c2cccnc2)CC1 (stereo not drawn)
4. Cc1ccc(S(=O)(=O)N2CCC(OCC(=O)N3CCC(O)(Cc4ccccc4)CC3)C2)cc1 (stereo not drawn)
I'd appreciate it if you could rank the molecules mentioned above by inhibition at 10 µM, largest value first. Your reply should list the labels following the order given in the request.
2, 3, 4, 1
(2: 99.2%, 3: 60.3%, 4: 6.88%, 1: -12.2%)

I. O=C(COCC1CCCN1S(=O)(=O)c1c(Cl)cc(C(F)(F)F)cc1Cl)N1CCC(O)(c2ccc(Br)cc2)CC1 (stereo not drawn)
II. COc1ccc(S(=O)(=O)N2Cc3ccccc3C[C@H]2COCC(=O)N2CCC(O)(c3cccnc3)CC2)cc1
III. Cc1cc(S(=O)(=O)N2CCCCC2CCC(=O)N2CCC(O)(c3cccc(F)c3)CC2)c(C)cc1Cl (stereo not drawn)
Would you mind ranking these molecules by ascending inhibition at 10 µM? // format: requested-order list of labels
II, III, I

P. Cc1cc(C)c(S(=O)(=O)N2CCCCC2COCC(=O)N2CCC(O)(c3cccnc3)CC2)c(C)c1 (stereo not drawn)
Q. COc1ccc(S(=O)(=O)N2CCCC2COCC(=O)N2CCC(O)(c3ccncc3)CC2)cc1 (stereo not drawn)
Just curious, which one has the larger inhibition at 10 µM reading, P or Q ? // caller expects the label of the chosen entry
P

These entries and their values trace back to patent US8580965B2.
